Tested on: HEK-293T
assay-procedure: Multiplex assay against HEK293T
Format: toxicity, cell-based
run-conditions: human, 12 h, 1 µM, compound concentration 1 uM, replicate 2
measured-attribute: Population Apoptotic (%)
Only the number, expressed in %, is required.

Please review the entries below; each comes with its answer.
INSERT INTO results (compound, assay_value) VALUES
  ('C[C@H](NC(=O)CNC(=O)c1cccc(Cl)c1)c1ccccc1', 48),
  ('Cc1nn(C)c2nc(NNC(=O)Nc3cc(Cl)nc(Cl)c3)cc(C(C)C)c12', 40),
  ('CC(C)C[C@H](CO)Nc1nc(S[C@@H](C)c2ccccc2)nc2nc(N)sc12', 46),
  ('COc1cc(Nc2ncc3c(n2)-c2ccc(Cl)cc2C(c2c(F)cccc2OC)=NC3)ccc1C(=O)O', 61),
  ('CN1CCN2c3ccccc3Cc3ccccc3C2C1.Cl (stereo unspecified) [MIANSERIN HYDROCHLORIDE]', 46);

Ask | Requested read-out: Population Apoptotic (%). Entry: `CC(C)(O)C(=O)N1CCN(c2ccc(C(F)(F)F)c(C3=C(c4c[nH]c5ccccc45)C(=O)NC3=O)c2)CC1`
Reply | 46

====

The entries below come with measured Total Cell Count values attached.
System: U2OS
assay-procedure: Multiplex assay against U2OS
Type: toxicity, cell-based
run-conditions: human, 48 h, 10 µM, compound concentration 10 uM, replicate 2

INSERT INTO results (compound, assay_value) VALUES
  ('CN1CCN2c3ccccc3Cc3ccccc3C2C1.Cl (stereo not drawn) [MIANSERIN HYDROCHLORIDE]', 285),
  ('CCC(=O)OCC(=O)[C@@]1(OC(=O)CC)[C@@H](C)C[C@H]2[C@@H]3CCC4=CC(=O)C=C[C@]4(C)[C@@]3(Cl)[C@@H](O)C[C@@]21C [BECLOMETHASONE DIPROPIONATE]', 131);

Ask | Requested read-out: Total Cell Count. Entry: `C=CCN1C[C@H](C(=O)N(CCCN(C)C)C(=O)NCC)C[C@@H]2c3cccc4[nH]cc(c34)C[C@H]21`
Reply | 206

====

Test system: Fibroblast
assay-procedure: Multiplex assay against human fibroblast
Type: toxicity, cell-based
run-conditions: 12 h, 1 µM, compound concentration 1 uM, replicate 1
measured-attribute: Population Apoptotic (%)
Respond with the figure and its unit, in that order.

INSERT INTO assay_data (compound, assay_value) VALUES
  ('Cl.Cl.OCCOCCN1CCN(C(c2ccccc2)c2ccc(Cl)cc2)CC1 (centres undefined) [HYDROXYZINE HYDROCHLORIDE]', '43%'),
  ('COc1cc2nc(N3CCN(C(=O)c4ccco4)CC3)nc(N)c2cc1OC.Cl [PRAZOSIN HYDROCHLORIDE]', '38%'),
  ('COc1cc(OC2CCN(C(C)=O)CC2)ccc1C(=O)N1CCC(N2C(=O)OCc3ccccc32)CC1', '41%'),
  ('Cc1ccc(OCC(O)C(C)NC(C)C)c2c1CCC2.Cl (centres undefined)', '36%'),
  ('C[C@H](NC(=O)CNC(=O)c1cccc(Cl)c1)c1ccccc1', '50%'),
  ('COCCn1c(C)c(C)s/c1=N\C(=O)C1C(C)(C)C1(C)C', '43%'),
  ('CN1C[C@H](C(=O)N[C@]2(C)O[C@@]3(O)[C@@H]4CCCN4C(=O)[C@H](Cc4ccccc4)N3C2=O)C[C@@H]2c3cccc4[nH]cc(c34)C[C@H]21.CS(=O)(=O)O [DIHYDROERGOTAMINE MESYLATE]', '25%'),
  ('Cn1cc(C(=O)OCC2CCN(CCNS(C)(=O)=O)CC2)c2ccccc21', '44%'),
  ('Cc1c(Cc2ccc3ccccc3n2)c2cc(F)ccc2n1CC(=O)O [TIMAPIPRANT]', '41%'),
  ('CN1CCC(C(=O)c2cccc(NC(=O)c3c(F)cc(F)cc3F)n2)CC1', '28%');

Ask | Requested read-out: Population Apoptotic (%). Entry: Cc1cc(NC(=O)NCCN2CCC(O)(Cc3ccccc3)CC2)c2ccccc2n1 [PALOSURAN]
Reply | 37%

Ask | Requested read-out: Population Apoptotic (%). Entry: Cc1cc(-c2ccc3c(c2)CC[C@H]3N2CC3(CCN(C(=O)Cc4cn5cc(C)sc5n4)CC3)C2)ncn1 [PF-5190457]
Reply | 29%

Ask | Requested read-out: Population Apoptotic (%). Entry: `CN1CCN(c2ccc(Nc3c4ccccc4nc4ccccc34)cc2)CC1.Cl.Cl.O`
Reply | 47%

Ask | Requested read-out: Population Apoptotic (%). Entry: `Cc1nn(C)c2nc(NNC(=O)Nc3cc(Cl)nc(Cl)c3)cc(C(C)C)c12`
Reply | 62%
